# Target entity: human PTH1 receptor (Homo sapiens, UniProt Q03431)
# Sequence (Q03431 27-593): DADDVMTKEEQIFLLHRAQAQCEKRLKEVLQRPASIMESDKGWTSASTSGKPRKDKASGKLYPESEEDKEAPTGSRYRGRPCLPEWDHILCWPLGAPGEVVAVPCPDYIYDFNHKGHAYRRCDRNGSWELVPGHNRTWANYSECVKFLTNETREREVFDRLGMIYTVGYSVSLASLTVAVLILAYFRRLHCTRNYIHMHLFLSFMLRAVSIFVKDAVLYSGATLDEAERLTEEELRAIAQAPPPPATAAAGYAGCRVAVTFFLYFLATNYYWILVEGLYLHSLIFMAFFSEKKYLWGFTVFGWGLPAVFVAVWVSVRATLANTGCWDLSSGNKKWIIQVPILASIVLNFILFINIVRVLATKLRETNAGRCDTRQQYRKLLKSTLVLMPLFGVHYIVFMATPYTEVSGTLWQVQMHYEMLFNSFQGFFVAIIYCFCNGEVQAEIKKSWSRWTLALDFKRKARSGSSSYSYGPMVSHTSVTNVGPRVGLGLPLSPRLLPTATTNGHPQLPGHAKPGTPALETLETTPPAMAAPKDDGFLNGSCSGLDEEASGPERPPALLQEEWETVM
# Assay: In vitro cAMP signal activity in HKRK-B7 cells (LLC-PK1 cells overexpressing the human PTH1 receptor)
# Assay type: cell-based
# Condition info: HKRK-B7 cells; compound at 1×10^−3 M; cAMP produced as percentage of that produced by hPTH(1-34) at 100 nM
# binning rule on cAMP production activity (%): L (below 50%), M (50% to below 80%), H (80% or more)

Inquiry: Hi, small favor: classify Cc1cc(OC[C@H](O)CO)cc(C)c1/C=C/S(=O)(=O)N1CCC2(CC1)N=C(C1CCC(CCC(F)(F)F)CC1)NC2=O (some centres unmarked) by its cAMP production activity (%) when you get a moment.
Reply text: M

Inquiry: Class? Entry: Cc1cc(N(C)C(N)=O)cc(C)c1CCS(=O)(=O)N1CCC2(CC1)N=C(C1C3CCC1CC3)NC2=O (centres unmarked)
Reply text: H
